- System: UO-31 renal
- ASSAY_DETAILS: NCI tumour cell line growth inhibition, 48 h; in the data active = GI50 below about 0.43 µM; inactive = the rest
A correct response names exactly one class from active, inactive

For orientation, consider the following solved cases.
O=C(CCl)Nc1ccc(C(=O)/C=C/c2cc3ccccc3nc2Cl)cc1 ... inactive
COc1ccc(N(C)c2cc(C#N)nc3ccccc23)cc1N ... active
C=CC(=O)Nc1ccc(C(=O)/C=C/c2ccc(N(C)CCF)cc2)c(O)c1 ... inactive

Shifting focus to the compound that follows.
Answer briefly: the call reported for `CC[C@@]1(O)C(=O)OCc2c1cc1n(c2=O)Cc2c-1nc1cc(F)c(C)c3c1c2[C@@H](N)CC3` in this assay.
active

====

- Tested on: SK-MEL-5 melanoma
- ASSAY_DETAILS: NCI tumour cell line growth inhibition, 48 h
MEASURE_NAME: GI50

COc1cc2oc(-c3cccc(C(=O)Nc4cccc([N+](=O)[O-])c4)c3)cc(=O)c2c(OC)c1OC ... 5.17 µM
C=CC(=O)Nc1ccc(C(=O)/C=C/c2ccc(N(C)CCF)cc2)c(O)c1 ... 2.14 µM
CC(=O)Nc1ccc(-c2cn(-c3cccc(C(=O)Nc4ccc(F)c(C(F)(F)F)c4)c3)nn2)cn1 ... 17.2 µM

Okay, next one:
Param readout = GI50; param system = SK-MEL-5 melanoma; param query = `N#Cc1c(-c2ccc(F)cc2)nc(SCc2ccccc2)nc1N1CCNCC1` ; response: value
15.7 µM

====

- Tested on: MDA-MB-468 breast
- ASSAY_DETAILS: NCI tumour cell line growth inhibition, 48 h; in the data active = GI50 below about 0.43 µM; inactive = the rest
Please answer using one outcome listed in Yes for active, No for inactive

Name the outcome recorded for `CCCCCCCCCCN1CCC(N2CCCCC2)CC1` in the assay.
No

What call does the record list for COc1ccc2c(c1)C(C)Cc1c(ncnc1-n1cnc3cc(C)ccc31)N2C (centres undefined) ?
Yes

What did the test return for `Cc1cc(C)n(-c2nnc3n2N=C(c2ccc(-c4ccccc4)cc2)CS3)n1` ?
No

State the result this test recorded for `CC/C=C/C/C=C/C/C=C/C/C=C/C/C=C/C/C=C/CCC(=O)Nc1ccn([C@@H]2O[C@H](CO)[C@@H](O)C2(F)F)c(=O)n1` .
Yes

Outcome logged for `COc1ccc2c(Oc3ccc(NC(=O)c4c(C)n(CC(C)(C)O)n(-c5ccccc5)c4=O)nc3)ccnc2c1` in this assay:
No

Please share the test call associated with `CCCCCc1ccc(S(=O)(=O)Nc2cc(-c3csc(NC(=O)CN4CCN(CCO)CC4)n3)ccc2OC)cc1` .
No

Could you kindly confirm the outcome this assay logged for `COC(=O)CCC1=C(CC(=O)OC)C(C)=N/C1=C\c1[nH]c(-c2ccc[nH]2)cc1OC` ?
No

Which result was noted for this molecule in the test: `O=C(CCCCCCNC(=O)C(O)(O)C(F)(F)F)Nc1ncc(-c2ccccc2)s1`
No

Could you check what this test reported for `N#Cc1ccc(OC(=O)Nc2ccc(Cl)c(Cl)c2)cc1` ?
No

====

- Test system: MDA-MB-468 breast
- ASSAY_DETAILS: NCI tumour cell line growth inhibition, 48 h
MEASURE_NAME: TGI (µM)
Answer in µM, number only, no unit symbol.

COc1ccc(/C=C(/c2ccccc2)[N+](=O)[O-])cc1 ... 3.31
NC(=S)N/N=C/c1cc(-c2cccc(N)c2)ccn1 ... 4.49
COc1ccc(Cc2cnc(NC(=O)c3ccc4c(c3)OCCO4)s2)cc1 ... 24.7
Clc1cc(Cl)cc(Nc2ccc3cc(OCCCN4CCOCC4)ccc3n2)c1 ... 6.23
COc1ccc2c(c1)c(-c1cc(N)n3nc(-c4cn(C)c5ccc(OC)cc45)cc3n1)cn2C ... 3.66

Which TGI value is on record for `O=C1C(c2ccccc2)=C(N2CCc3ccccc32)OC1(Cl)Cl` ?
3.25

Measured values drawn from PubChem BioAssay (NCI) for this set.
